Known melting point of a selection of compounds

>  <smi>
O=CC(=Cc1ccc(OCc2ccccc2)cc1)C(C=O)=Cc1ccc(OCc2ccccc2)cc1

>  <melting point>
119 to 120 °C

$$$$
>  <smi>
COc1ccc(COc2ccc(C=C(C=O)C(C=O)=Cc3ccc(OCc4ccc(OC)cc4)cc3)cc2)cc1

>  <melting point>
218 to 220 °C

$$$$
>  <smi>
CN1CCN(c2ccccc2/C=C(C=O)/C(C=O)=C/c2ccccc2N2CCN(C)CC2)CC1

>  <melting point>
218 to 220 °C

$$$$
>  <smi>
CCCOc1ccc(C=C(C=O)C(C=O)=Cc2ccc(OCCC)c(OC)c2)cc1OC

>  <melting point>
95 to 96 °C

$$$$
>  <smi>
O=CC(=Cc1cccc(OCc2ccccc2)c1)C(C=O)=Cc1cccc(OCc2ccccc2)c1

>  <melting point>
126 to 127 °C

$$$$
>  <smi>
COc1cc(C=C(C=O)C(C=O)=Cc2ccc(OC(=O)c3ccccc3)c(OC)c2)ccc1OC(=O)c1ccccc1

>  <melting point>
107 to 110 °C

$$$$
>  <smi>
O=CC(=Cc1ccc(O)cc1)C(C=O)=Cc1ccc(O)cc1

>  <melting point>
244 to 246 °C

$$$$

Reported melting point ( `Cc1ccc(C=C(C=O)C(C=O)=Cc2ccc(C)cc2)cc1` ) = 177 to 178 °C

====

property: melting point

Some entries whose results are on file:
>  <smi>
COc1cc(C=C(C=O)C(C=O)=Cc2ccc(OC(C)=O)c(OC)c2)ccc1OC(C)=O

>  <reported.measurement>
149 to 151 °C

$$$$
>  <smi>
O=CC(=Cc1ccccc1OCc1ccccc1)C(C=O)=Cc1ccccc1OCc1ccccc1

>  <reported.measurement>
120 to 121 °C

$$$$
>  <smi>
O=CC(=Cc1ccccc1Cl)C(C=O)=Cc1ccccc1Cl

>  <reported.measurement>
177 to 178 °C

$$$$

Reported melting point ( `O=CC(=Cc1ccccc1F)C(C=O)=Cc1ccccc1F` ) = 141 to 142 °C

====

Known melting point of a selection of molecules

Some entries whose results are on file:
>  <smi>
CC(C)Oc1ccc(C=C(C=O)C(C=O)=Cc2ccc(OC(C)C)cc2)cc1

>  <reported.measurement>
200 to 202 °C

$$$$
>  <smi>
C=CCOc1ccccc1C=C(C=O)C(C=O)=Cc1ccccc1OCC=C

>  <reported.measurement>
117 to 118 °C

$$$$
>  <smi>
COc1ccccc1C=C(C=O)C(C=O)=Cc1ccccc1OC

>  <reported.measurement>
163 to 164 °C

$$$$
>  <smi>
COc1ccc(COc2cccc(C=C(C=O)C(C=O)=Cc3cccc(OCc4ccc(OC)cc4)c3)c2)cc1

>  <reported.measurement>
117 to 119 °C

$$$$

Reported melting point ( `CC(C)Oc1cccc(C=C(C=O)C(C=O)=Cc2cccc(OC(C)C)c2)c1` ) = 116 to 117 °C

Reported melting point ( `COc1ccc(C=C(C=O)C(C=O)=Cc2ccc(OC)cc2)cc1` ) = 204 to 207 °C

Reported melting point ( `O=CC(=Cc1ccc(OC(=O)c2ccccc2)cc1)C(C=O)=Cc1ccc(OC(=O)c2ccccc2)cc1` ) = 207 to 208 °C
